Biological target: Cytochrome P450 1A2 (Homo sapiens)
Assay: p450-cyp1a2 (AID 410); also: potency is read from the fitted curve at half-maximal effect
Settings: recombinant CYP1A2, luciferin-ME demethylation, luminescence; series mostly up to 25.6 µM
Inconclusive results are not listed. Activity calls are given as the source filed them. Calls follow the shape of the full dose curve.
quantity-kind: Potency

Below, each entry is followed by its recorded Potency result.
• CCOC(=O)c1ccc(N)cc1 = 2 µM (active)
• O=C1C(CCS(=O)c2ccccc2)C(=O)N(c2ccccc2)N1c1ccccc1 (stereo unspecified) = inactive
• CN(C)CCC[C@@]1(c2ccc(F)cc2)OCc2cc(C#N)ccc21 = inactive
• CN1CCC[C@@H]1CCO[C@](C)(c1ccccc1)c1ccc(Cl)cc1 = inactive
• NC(N)=NCc1cccc(I)c1 = 12.6 µM (active)

Turning to the following compound.
Look up Potency for this compound: CCCc1ncc(C[n+]2ccccc2C)c(N)n1
inactive
